Every entry's value here was drawn from PubChem BioAssay AID463180.

Target: Furin (Homo sapiens)
Experiment: furin substrate cleavage inhibition retest – biochemical, fluorescence intensity, confirmation (AID 463180)
Conditions: Recombinant furin, fluorogenic substrate cleavage, at 50 µM, active compounds read high
Property Measured: inhibition (%)

• COc1ccc(/C=N/n2c(=O)[nH]c3c([nH]c4ccc(C)cc43)c2=O)cc1CN1CCOCC1 = -14
• CC(=O)Nc1cc(-c2ccc(Cl)cc2)nn1-c1ccccc1 = -20
• CCC(C)C(NC(=O)C1CCC(C)CC1)C(=O)NCc1cccnc1 (stereo not drawn) = -18.4
• CC1(C)CC(=O)C(/C=N/n2cnc3ccccc3c2=O)=C(O)C1 = 7.64
• COC(=O)COc1ccc(S(=O)(=O)NCC2CCCO2)cc1Cl (stereo not drawn) = -21.4
• CNc1nc(NCCOC23CC4CC(CC(C4)C2)C3)nc(OCC(F)(F)F)n1 = -19.7
• COc1ccc(C(=O)NCCN2CCOCC2)cc1OC = -19.6
• Cc1c(NC(=O)c2ccc(Cl)c(S(=O)(=O)N3CCOCC3)c2)c(=O)n(-c2ccccc2)n1C = -23.3
• CCN1CCS/C1=C/C=C/C1=[N+](CC)CCS1 = 61.3
• OC1C2CN3CCN(C2)CC1(Cc1ccccc1)C3 (stereo not drawn) = -20.6
• CCn1c(C)c(CCC(=O)O)c(=O)n2nc(-c3ccccc3OC)cc12 = -22.2
• Cc1ccccc1-n1c(O)c(C=Nc2ccc(N(C)C)cc2)c(=O)[nH]c1=O = 20.3
• CCCOc1ccc(C2NC(=O)NC2=O)cc1 (stereo not drawn) = -10.8
• CCNC(=O)C1CC(=O)N(Cc2ccc3c(c2)OCO3)C(=Nc2ccc(F)cc2)S1 (stereo not drawn) = -9.04
• CCCCOc1ccc(-c2ncc(Cl)cn2)cc1 = -14.4
• COc1ccc(N=CC2=C(O)CC(C)(C)CC2=O)cc1 = 8.92
• Cc1cc(N=CC2=C(O)CCCC2=O)no1 = -4.93
• O=C(COc1ccc(Cl)cc1Cl)NC(=O)N1CCOCC1 = -20.4
